# System: LOX IMVI melanoma
# protocol notes: NCI tumour cell line growth inhibition, 48 h
TGI values, listed per item

Completed entries (count: 10):
{"compound": "c1ccc2c(c1)ccn2CCc1c[nH]c2ccccc12", "TGI": "> 10 µM"}
{"compound": "CN1CCN(CCCOc2ccc3nc(Nc4ccc(Cl)c(C(F)(F)F)c4)ccc3c2)CC1", "TGI": "15.9 µM"}
{"compound": "O=C(c1ccc(N=Cc2ccccc2O)cc1)c1ccc(N=Cc2ccccc2O)cc1", "TGI": "> 100 µM"}
{"compound": "Cc1cccc(NC(=O)C(=O)C(C(=O)c2ccc3ccccc3c2)C2OC(=O)c3ccccc32)c1C (stereo not drawn)", "TGI": "30.4 µM"}
{"compound": "CCOC(=O)C(=Cc1[nH]c2ccccc2c1-c1c[nH]c2ccccc12)C(=O)OCC", "TGI": "26.7 µM"}
{"compound": "CSc1ncnc2c1ncn2C1CC(Oc2ccc(C)cc2)C(COc2ccc(C)cc2)O1 (stereo not drawn)", "TGI": "> 100 µM"}
{"compound": "Oc1c(CN2CCOCC2)ccc2cccnc12", "TGI": "> 10 µM"}
{"compound": "CCOC(=O)C1=C(C)N(NC(=O)Nc2ccccc2)C(=O)C1=P(c1ccccc1)(c1ccccc1)c1ccccc1", "TGI": "> 100 µM"}
{"compound": "CC1(C)NC2C(=O)c3c([nH]c4ccccc34)[C@]3(C)CCC1CC23 (stereo partly drawn)", "TGI": "> 100 µM"}
{"compound": "COc1cc2c3c(n(CCCNC(=O)OCC4c5ccccc5-c5ccccc54)c(=O)c2cc1OC)-c1cc2c(cc1/C3=C\\CCNC(=O)OCC1c3ccccc3-c3ccccc31)OCO2", "TGI": "> 50 µM"}

Query block: Request the reported TGI associated with `O=C1C=C(C2=CC(=O)C(=O)c3ccccc32)c2ccccc2C1=O`
Result block: > 100 µM

Query block: // next record `Cc1ccc(C2=C(c3ccccc3)C(Br)(c3ccc(C)cc3)C(c3ccccc3)=C2c2ccc(C)cc2)cc1`
Result block: > 100 µM

Query block: Now the same for OCC(O)COCn1nncc1Cn1ncc2c(SCc3ccccc3)ncnc21 (stereo not drawn)
Result block: > 100 µM
